Molecular target: T1, cyno TfR extracellular domain (analogous construct to human TfR ecd) (cynomolgus monkey, UniProt Q5RDH6 87-760 (Pongo abelii entry))
T1 construct: also called cynoTfR ecd
T1 chain: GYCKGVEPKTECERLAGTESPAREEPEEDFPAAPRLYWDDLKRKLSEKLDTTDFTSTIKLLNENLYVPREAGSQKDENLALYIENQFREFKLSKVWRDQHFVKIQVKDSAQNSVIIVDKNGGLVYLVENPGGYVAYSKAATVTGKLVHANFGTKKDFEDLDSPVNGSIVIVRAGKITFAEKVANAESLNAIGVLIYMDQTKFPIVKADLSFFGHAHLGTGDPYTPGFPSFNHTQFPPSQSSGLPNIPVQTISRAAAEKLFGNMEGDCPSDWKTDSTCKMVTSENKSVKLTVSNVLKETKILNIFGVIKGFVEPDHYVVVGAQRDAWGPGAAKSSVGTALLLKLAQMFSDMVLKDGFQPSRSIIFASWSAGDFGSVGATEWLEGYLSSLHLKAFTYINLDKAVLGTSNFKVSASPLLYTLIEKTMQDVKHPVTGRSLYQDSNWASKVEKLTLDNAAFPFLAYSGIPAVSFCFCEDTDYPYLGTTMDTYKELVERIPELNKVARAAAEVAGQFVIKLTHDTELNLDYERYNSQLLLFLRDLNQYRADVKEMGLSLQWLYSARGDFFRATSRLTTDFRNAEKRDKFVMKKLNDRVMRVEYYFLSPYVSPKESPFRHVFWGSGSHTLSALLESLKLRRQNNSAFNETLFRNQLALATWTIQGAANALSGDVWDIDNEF
Assay: SPR, IgG;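 note: His-tagged TfR captured via immobilized anti-His antibody on a CM5 chip, antibody injected in 3-fold dilution series by single cycle kinetics, 1:1 Langmuir or steady-state fit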
measured.endpoint: pKd
Conceptually, pKd converts a concentration in mol/L into minus its log10.

Tell us which pKd value is on record for hu7A4.v15 IgG (antibody, V domains shown, Human IgG; also called humanized 7A4.v15) VH: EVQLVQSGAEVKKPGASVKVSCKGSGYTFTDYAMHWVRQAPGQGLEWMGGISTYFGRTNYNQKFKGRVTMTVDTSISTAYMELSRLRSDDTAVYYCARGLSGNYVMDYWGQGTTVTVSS VL: DIVMTQSPDSLAVSLGERATINCRASESVDSYGNSFMHWYQQKPGQPPKLLIYRASNLESGVPDRFSGSGSRTDFTLTISSLQAEDVAVYYCQQSNEAPPTFGQGTKLEIK
8.11

Tell us which pKd value is on record for hu7A4.v13 (antibody, V domains shown, IgG) VH: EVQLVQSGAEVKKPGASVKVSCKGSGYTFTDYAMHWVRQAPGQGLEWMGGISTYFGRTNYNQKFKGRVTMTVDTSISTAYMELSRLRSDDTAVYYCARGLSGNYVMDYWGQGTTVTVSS VL: DIVMTQSPDSLAVSLGERATINCRASESVDSYGNSFMHWYQQKPGQPPKLLIYRASNLESGVPDRFSGSGSGTDFTLTISSLQAEDVAVYYCQQSNEAPPTFGQGTKLEIK
7.94

Tell us which pKd value is on record for hu7A4.v14 (antibody, V domains shown, IgG) VH: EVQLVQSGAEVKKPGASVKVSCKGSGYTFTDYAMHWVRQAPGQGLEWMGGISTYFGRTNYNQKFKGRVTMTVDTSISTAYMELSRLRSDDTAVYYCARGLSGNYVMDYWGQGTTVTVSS VL: DIVMTQSPDSLAVSLGERATINCRASESVDSYGNSFMHWYQQKPGQPPKLLIYRASNLESGIPDRFSGSGSGTDFTLTISSLQAEDVAVYYCQQSNEAPPTFGQGTKLEIK
7.80

Tell us which pKd value is on record for hu16F6.v4 (antibody, V domains shown, IgG; HC 71 R, 78 L; also called 16F6.v4 IgG) VH: EVQLVESGPGLVKPSETLSLTCTVSGNSITSEYAWNWIRQPPGKGLEWIGYISYSGTTSYNPSLKSRVTISRDTSKNQLSLKLSSVTAADTAVYYCARYGYGNPATRYFDVWGQGTLVTVSS VL: DIQMTQSPSSLSASVGDRVTITCRASKSISKYLAWYQQKPGKTNKLLLYSGSTLQSGVPSRFSGSGSGTDYTLTISSLQPEDFATYYCQQHNEYPWTFGQGTKVEIK
7.96
